The measured values listed here are drawn from ChEMBL document CHEMBL1144767.

target: Luciferin 4-monooxygenase (Photinus pyralis); experiment: Inhibition of Photinus pyralis luciferase by PK-Light assay
Sequence (P08659 whole entry): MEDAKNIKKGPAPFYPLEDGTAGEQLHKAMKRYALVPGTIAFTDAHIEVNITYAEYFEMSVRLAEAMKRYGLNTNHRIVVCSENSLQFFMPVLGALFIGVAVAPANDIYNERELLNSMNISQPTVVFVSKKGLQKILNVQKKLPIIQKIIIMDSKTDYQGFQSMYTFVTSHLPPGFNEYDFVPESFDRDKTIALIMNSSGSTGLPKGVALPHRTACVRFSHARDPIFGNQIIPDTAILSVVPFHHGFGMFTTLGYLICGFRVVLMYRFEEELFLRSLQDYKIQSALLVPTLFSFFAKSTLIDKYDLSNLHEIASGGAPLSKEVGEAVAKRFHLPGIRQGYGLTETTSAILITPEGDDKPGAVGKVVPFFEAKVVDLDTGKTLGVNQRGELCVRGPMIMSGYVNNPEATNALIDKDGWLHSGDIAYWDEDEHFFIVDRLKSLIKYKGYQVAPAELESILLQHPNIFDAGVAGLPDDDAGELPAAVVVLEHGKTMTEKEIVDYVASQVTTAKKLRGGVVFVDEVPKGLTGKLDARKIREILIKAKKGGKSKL
Reported values of IC50 for individual entries
Kindly provide the numeric value in nM only, without the unit symbol.

Query: Enter reported IC50 observed with Luciferin 4-monooxygenase (Photinus pyralis) for CN1CCN(C(=O)COc2ccc(-c3nc4ccccc4s3)cc2)CC1
Reply: 900

* * *

target: UniProtKB P08659; assay: Inhibition of Photinus pyralis luciferase by Easy lite assay
# pIC50 per entry
Quick note: pIC50 means taking -log10 of the concentration in moles per liter.

// below: answered molecules
| MOLECULE | pIC50 |
| --- | --- |
| CCOC(=O)N1CCN(C(=O)c2cc(-c3ccc(OCC)cc3)nc3ccccc23)CC1 | 6.00 |
| COc1ccc(C(=O)NC(=O)Nc2cc(C)ccn2)cc1 | 6.43 |
| Cc1ccc(C(=O)Cn2c3c(sc2=N)CCCC3)cc1 | 5.74 |
| Cc1ccc(C(=O)Nc2nc3ccc(S(C)(=O)=O)cc3s2)s1 | 5.49 |
| Clc1cccc(/C=N\C=N\c2cccc(Cl)c2)c1 | 4.94 |

Field: next molecule
Query: Query the reported pIC50 for UniProtKB P08659; item: CCOc1ccc(-c2cc(C(=O)N3CCC4(CC3)OCCO4)c3ccccc3n2)cc1
Reply: 6.00
